These measurements were taken from PubChem BioAssay (NCI).

Measured growth, listed per entry for reference.
Tested on: HCT-15 colon
Assay: NCI-60 one-dose screen, 48 h (100 = growth as untreated, 0 = no growth, -100 = all killed)
Conditions: 10 µM unless noted
The panel holds about 83,000 compounds, 20% with a hit somewhere; the sample as a whole holds those more often. Active and inactive are the calls of the source. Rule for the calls: active = growth percent below 10; inactive = the rest.

Record excerpt, results attached:
{"Molecule": "CC(=O)O[C@@H]1[C@@H](OC(C)=O)[C@H](OC(C)=O)CO[C@H]1Nc1cccc2ccccc12", "Study system": "HCT-15 colon", "Val": "94% (inactive)"}
{"Molecule": "COc1ccccc1S(=O)(=O)Nc1ccc2c3c(cc(-c4cnn(C)c4)nc13)C(=O)N2C", "Study system": "HCT-15 colon", "Val": "27.6% (inactive)"}
{"Molecule": "COc1ccc(/C(=C/c2cc(OC)c(OC)c(OC)c2)[N+](=O)[O-])cc1", "Study system": "HCT-15 colon", "Val": "-41.3% (active)"}
{"Molecule": "COc1cc(NC(=O)C#Cc2ccccc2)c(OC)cc1Cl", "Study system": "HCT-15 colon", "Val": "20.6% (inactive)"}
{"Molecule": "Fc1ccc(/C=N/n2c(-c3cc(Cl)cc(Cl)c3Cl)nn(CNc3ccc(Cl)nn3)c2=S)cc1", "Study system": "HCT-15 colon", "Val": "110% (inactive)"}

Q: // lookup growth for `COc1ccc(Cn2cc3c(c2-c2cc(OC)c(OC)c(OC)c2)CCc2c(CO)noc2-3)cc1`
Result: 17.6% (inactive)

Q: // lookup growth for `O=S1(=O)N(CCNc2nccc(-c3c(-c4cccc(O)c4)nc4sccn34)n2)CCN1Cc1ccccc1`
Result: 55.7% (inactive)

Q: // lookup growth for CC(C)(c1ccc(OCC(O)CNCc2ccco2)cc1)c1ccc(OCC(O)CNCc2ccco2)cc1 (stereo not given)
Result: 82.8% (inactive)

Q: // lookup growth for `CCCCCCCCCCCCCCCC(=O)NS(=O)(=O)OC[C@H]1O[C@@H](n2cnc3c(N)ncnc32)[C@H](O)[C@@H]1O`
Result: -8.55% (active)

Q: // lookup growth for `Oc1ccc(O)c(-[n+]2ccccc2)c1`
Result: 105% (inactive)

====

System: SNB-19 CNS
Assay: NCI-60 one-dose screen, 48 h
Conditions: 10 µM unless noted
The panel holds about 83,000 compounds, 20% with a hit somewhere; the sample as a whole holds those more often. The source made the active and inactive calls. How the source made its calls: active means growth percent below 10; inactive means the rest.
Entry note: the call must match one of y (active), n (inactive)

{"Compound": "NS(=O)(=O)c1ccc(CCN2C(=O)/C(=C\\c3ccc(Cl)cc3)C=C2c2ccc(Oc3ccccc3)cc2)cc1", "Study system": "SNB-19 CNS", "Group": "n"}

Q: What outcome does the record of this test show for `COc1ccc(/C=C/C(=O)c2ccc(NC(=O)CSc3nnc(-c4cc(OC)c(OC)c(OC)c4)o3)cc2)cc1` ?
Result: y

Q: What outcome does the record of this test show for `Cc1nssc1=S` ?
Result: n

Q: What outcome does the record of this test show for COc1cc(CN(c2ccc(Cl)cc2)C2OC(=O)c3ccccc32)cc(OC)c1OC (stereo not given) ?
Result: n

Q: What outcome does the record of this test show for `CN(C)CCNc1nc2ccccc2c2c(=O)c3ccccc3sc12` ?
Result: n

====

System: CCRF-CEM leukemia
Assay: NCI-60 one-dose screen, 48 h (100 = growth as untreated, 0 = no growth, -100 = all killed)
Details: 10 µM unless noted
This is part of a sample that, as a whole, favours compounds with a hit. Of some 83,000 tested, about 20% had one in any assay.
Attribute measured: growth (%)
Reply numerically in %, unit not repeated.

Record excerpt, results attached:
{"Molecule": "COC(=O)c1ccc2c(c1)Oc1ccc(Cl)cc1-c1cc(C)nn1-2", "growth (%)": 78.8}
{"Molecule": "COc1cc2c(cc1OC)-c1c(oc3c4c(ccc3c1=O)OC(C)(C)C=C4)CO2", "growth (%)": 69.5}
{"Molecule": "Cc1cc(SCc2ccc(Cl)cc2Cl)nc(SCc2ccc(Cl)cc2Cl)n1", "growth (%)": 108}
{"Molecule": "COc1cc2ncn3c(=O)c4c5c(sc4nc3c2cc1OC)CCCCC5", "growth (%)": 103}
{"Molecule": "C[C@]12O[C@H]1[C@H](O)c1c(cc(O)c3c1C(=O)c1cccc(O)c1-3)C2=O", "growth (%)": 92}

Q: // lookup growth for `FC(F)(F)c1cn(CC2CNC2)c2ncnc(Cl)c12`
Result: 86.7

Q: // lookup growth for CCCCCCCCN(CCCCCCCC)CC(O)c1cc(-c2ccccc2)nc2ccc(OC)cc12 (centres undefined)
Result: 4.59

Q: // lookup growth for `O=C(Cn1c2ccccc2c2ccncc21)N/N=C/c1c[nH]c2ccccc12`
Result: 43.8

Q: // lookup growth for `COc1ccc(-c2cc(-c3nnc(SC/C(=N\O)c4ccccc4)n3-c3ccccc3)c3ccccc3n2)cc1`
Result: 103

Q: // lookup growth for `CCc1cccc(-c2ccccc2)c1`
Result: 8.01

Q: // lookup growth for `O=C(O)c1ccc(-c2nn(-c3ccc(C(=O)O)cc3)cc2/C=N/Nc2c(F)c(F)cc(F)c2F)cc1`
Result: 97.9

Q: // lookup growth for `Cc1ccn2cc(Cc3cc(=O)oc4c3ccc3ccccc34)c(=O)nc2c1`
Result: 95.8
